System: Bacillus spizizenii
Experiment summary: Antibacterial activity against Bacillus subtilis ATCC 6633 assessed as growth inhibition after 24 hrs by micro dilution method
Format: functional
Test context: ATCC 6633, 24 h
With a cut-off of 10 µg/mL, any MIC strictly below it is called TRUE; any MIC meeting it or above is called FALSE.

Illustrative cases are given below, each with its answer.
Cc1ccc2c(c1)C(O)C(Cc1ccccc1)(Cc1ccccc1)C(=O)N2 (centres undefined): FALSE
O=C1Nc2ccc(Cl)cc2C(O)C1(Cc1ccccc1)Cc1ccccc1 (centres undefined): FALSE
O=C1Nc2ccccc2C(O)C1(Cc1ccc(Cl)cc1)Cc1ccc(Cl)cc1 (centres undefined): TRUE
C[C@H]1COc2c(N3CCN(C)CC3)c(F)cc3c(=O)c(C(=O)O)cn1c23.C[C@H]1COc2c(N3CCN(C)CC3)c(F)cc3c(=O)c(C(=O)O)cn1c23.O: TRUE

Query string: is_below(MIC, 10 µg/mL) for CN1C(=O)C(Cc2ccccc2)(Cc2ccccc2)C(O)c2ccccc21 (centres undefined) ?
Result string: FALSE

Query string: is_below(MIC, 10 µg/mL) for COc1ccc2c(c1)C(O)C(Cc1ccccc1)(Cc1ccccc1)C(=O)N2 (centres undefined) ?
Result string: FALSE

Query string: is_below(MIC, 10 µg/mL) for CCN1C(=O)C(Cc2ccccc2)(Cc2ccccc2)C(O)c2ccccc21 (centres undefined) ?
Result string: FALSE

Query string: is_below(MIC, 10 µg/mL) for O=C1N(Cc2ccc(Cl)cc2)c2ccc(Cl)cc2C(O)C1(Cc1ccc(Cl)cc1)Cc1ccc(Cl)cc1 (centres undefined) ?
Result string: FALSE

Query string: is_below(MIC, 10 µg/mL) for O=C1N(Cc2ccccc2)c2ccccc2C(O)C1(Cc1ccccc1)Cc1ccccc1 (centres undefined) ?
Result string: FALSE

This collection of values is drawn from ChEMBL document CHEMBL3259650.
